Tested On: LC8 (as used with syn-4mer) ( (S. cerevisiae or D. …, UniProt Q24117 1-89))
Sequence (Q24117 whole entry): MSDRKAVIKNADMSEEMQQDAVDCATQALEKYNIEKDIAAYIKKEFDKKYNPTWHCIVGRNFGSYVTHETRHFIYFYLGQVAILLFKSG
Assay Procedure: ITC
pKd: −log10 of the molar value.
Observed Property: pKd

>>> result("synthetic four-site IDP (syn-4mer) (designed binder) GSYGSRKAIDAATQTEPKETRKAIDAATQTEPKETRKAIDAATQTEPKETRKAIDAATQTEGSYGS")
"~7.40"
